B1: ZNF649 (parent)
chain: MTKAQESLTLEDVAVDFTWEEWQF

- Variants of: B1
- MEASUREMENT NOTES: protein stability index of a GFP-peptide fusion (GPS, HEK-293T) (PSI 1-6); higher = more stable;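 further: lentivirally expressed fusions sorted by FACS into six bins by GFP to DsRed ratio, PSI derived from sequencing read proportions per bin multiplied by bin number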
- EXPERIMENTAL CONDITIONS: c terminus: a fixed tail appended
RESULT TYPE: protein stability index
# print the numeric value only

T9Y : 2.41

Fill in protein stability index for record E11I 2.25

Identify protein stability index associated with the variant L8A 4.22

Tell me measured protein stability index for E21N please. 1.54

Return the recorded protein stability index value; entry: V13I 3.47

Specify protein stability index for E20N and stop. 2.41

Give me measured protein stability index, please, for this variant: M1F 2.69

Specify measured protein stability index for Q5G . 2.84

Fill in protein stability index for record E6G 2.74

Could you please provide reported protein stability index for A14I ? Thanks! 1.88

Return protein stability index (reported value) for this variant: F24P 3.9

Note down protein stability index recorded for M1W 2.07

Fill in protein stability index for record L10W 3.19

Given the variant E11W , write its reported protein stability index. 2.13

Supply recorded protein stability index for W22A here. 4.17

For the variant K3D , give its reported protein stability index. 3.63

Please look at this variant and report its protein stability index: V15M 3.77

Give a short answer stating reported protein stability index for M1E . 4.48

Measured values drawn from the supplement of paper PMC10567573 for this set.
